# procedure details: TED14856 Part A: plasma pharmacokinetics of compound (1)
# Format: in vivo, human
# experimental setup: female, human, plasma, oral, 150 mg, single 150 mg, Cycle1 Day 1, fasted, N=3; read-out: Cmax (Mean ± SD)
assay metric: Cmax (ng/mL)
Reply numerically in ng/mL, unit not repeated.

Kindly note the recorded Cmax for O=C(O)c1ccc2c(c1)CCCC(c1ccc(Cl)cc1Cl)=C2c1ccc(O[C@H]2CCN(CCCF)C2)cc1 , which is 1310

====

# procedure details: TED14856 Part A: plasma pharmacokinetics of compound (1)
# Type: in vivo, human
# experimental setup: human, plasma, oral, 200 mg, single 200 mg, Cycle1 Day 1, fasted, N=4; read-out: Cmax (Geometric Mean)
assay metric: Cmax (ng/mL)
Reply numerically in ng/mL, unit not repeated.

Kindly note the recorded Cmax for O=C(O)c1ccc2c(c1)CCCC(c1ccc(Cl)cc1Cl)=C2c1ccc(O[C@H]2CCN(CCCF)C2)cc1 [compound (1)] , which is 1340
